# target.under.test: hAM1R (human, UniProt Q16602)
# procedure.details: cell-based or functional assay
Bridge positions count the residues as written; N and C are the ends. Square brackets hold non-standard residues; d marks the D form. Ends that are not written are not given here. Hyp = O=C(O)[C@@H]1C[C@@H](O)CN1

| binder | unit.abbrev | bound.operator | hAM1R EC50 (cAMP) |
| --- | --- | --- | --- |
| KCNTATCATQRLANFLVHSSNNFGAILPRTKVGSNGY [SEQ ID NO: 19] | µM | > | 5 |
| KCNAATCTVQRLAEQIYQFTDKDKDNVAPPTNVGSNG[Hyp]-NH2 (disulfide 2-7 (inferred); ends not checked) [SEQ ID NO: 101] | µM | > | 5 |
| KCNTATCATQRLANFLVHSSNNFGAIAPSTKVGSNGY [SEQ ID NO: 93] | µM | > | 5 |
| GCRTGTCTVQRLAHQIYQFTDKDKDNVAPRTKISPNG[Hyp]-NH2 (disulfide 2-7 (inferred); ends not checked) [SEQ ID NO: 197] | µM | = | 2.98 |
| GCRFGTCTVQWLAHQIYQFTDKDKDNVAPRTNVSPQGY [SEQ ID NO: 340] | µM | = | 0.671 |
